Here, each record is paired with measured yeast fitness data.
B1: tRNA (parent)
chain: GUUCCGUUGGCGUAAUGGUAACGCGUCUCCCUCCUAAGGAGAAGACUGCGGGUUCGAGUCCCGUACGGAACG

variants of: B1; assay: yeast fitness relative to wild type (ratio to wild type); higher = fitter; tRNA-Arg(CCU), competitive growth, 37 C, YPD
Fewer inactive variants are shown than the library holds.

alteration	yeast fitness
A36U C46U	0.608

Short answer for G6C C60A : yeast fitness was 0.583

Short answer for C29G A43U : yeast fitness was 0.594

Sourced from the RNAGym collection of RNA variant scans (doi:10.1126/science.aae0568)
